system: MS2 coat protein; assay: apparent KD of MS2 coat protein; designed switch direction (-1 OFF switch, 1 ON switch): -1; higher = weaker reporter binding; details: Eterna round: R95; input ligand: microRNA oligo, concentration not stated
value kind: apparent KD of MS2 coat protein (nM)
Give the value, in units of nM, as a plain number.

chain	apparent KD of MS2 coat protein (nM)
GAGAAACAUGAGGAUCACCCAUGUGAGGAUAUGAAAAAGAAAAGAAAAGAAAGAAGAAUCAGAAGGCACAAAGC [salish99-ex1_r3_091] (puzzle: Exclusion 1)	32.4
CAGUACUGAGGAUAUACAUGAGGAUCACCCAUGUGUUCCAGCUAGGAAACGAGCAAAAGUAGAAGGCAGUACUG [salish99_ex3_r3_071] (puzzle: Exclusion 3)	19.7
CCGGUAAAGGAGGAUAUAGGAGUCGAUAGACACCUAGAAGGCCUGACAUGAGGAUCACCCAUGUGUCCUUCCGG [Fiskers Ex 6 - 94] (puzzle: Exclusion 6)	16.8
AGAUGUAGAUACCGGUCCUACAUGAGGAUCACCCAUGUAGCUAGACGUGCGGGCGGCGCUCGUCGGUCUACCAGUAG [salish99_TOv1_r3_099] (puzzle: Sensor v3, turn-off variant 1)	30.7
GGUGCGUAUGUGAGGAUAUGCUGGUCCUUGGAUCAGCAGAAGGCACAUGAGGAUCACCCAUGUGGUGUCGUCCC [salish99_Bmod_Ex4_021] (puzzle: Brourd's mod of Exclusion 4)	241
CGAAAUGCCCGUGGCCACAAGCUUUUUGCUUGUCUUACUACAUGAGGAUCACCCAUGUACCAUGGGCUCCUGACCAU [Rixele] (puzzle: Sensor v3, turn-off variant 2)	11.6
UUUAAUUUUUUUUUUUUACAAGCUUUUUGCUCGUCUUAUACAUGAGGAUCACCCAUGUGAGUGGAGGAUAAAUUAUC [JMF 34] (puzzle: Sensor v3, turn-off variant 2)	29.2
CUUAGCCUAAAAUCACGCAAGCUUCUUGCUUGUCUUAAGACAUGAGGAUCACCCAUGUCCGGGCUGAACUUAUGGAA [Enonzave] (puzzle: Sensor v3, turn-off variant 2)	21.1
UAAUAAAGUGUGAGGAUAUGCUGGUCGAUAGAUCAGCAGAAGGCACAUGAGGAUCACCCAUGUAAUAUAUAAAU [Mat - Exclusion 4 - JL Mod - D58] (puzzle: Brourd's mod of Exclusion 4)	40.9

Please turn your attention to the following entry.
Give apparent KD of MS2 coat protein for UUAAUGUGAGGAUAUCAAGUGUGAUAGAGUAAUGGUAAAUAUGAGAAGGCACAUGAGGAUCACCCAUGUUCUUC [Mat - Exclusion 4 - Mod of JL - D59] (puzzle: Exclusion 4)
14

Data provenance is the supplement of paper PMC9170038.
